Tested on: HCV GT1b (Con1, HCV-1b) replicon
Experiment: HCV GT1b replicon 2-drug combination assay (firefly luciferase, MacSynergy II)
Format: cell-based, Hepatitis C virus
Design: unit not given here
Details: 2nd inhibitor (NS5A inhibitor) in combination with Compound A; 3 days; 0.125-8x EC50
Quick rule for you: Antagonism volume at -8 or higher means condition met, lower means condition not met.

See these solved cases before continuing.
record_smiles=COC(=O)N[C@H](C(=O)N1CCC[C@H]1c1nc(-c2ccc(-c3ccc(-c4c[nH]c([C@@H]5CCCN5C(=O)[C@@H](NC(=O)OC)C(C)C)n4)cc3)cc2)c[nH]1)C(C)C category="condition met"
record_smiles=COC(=O)N[C@H](C(=O)N1CCC[C@H]1c1nc2cc([C@H]3CC[C@H](c4cc5nc([C@@H]6CCCN6C(=O)[C@@H](NC(=O)OC)[C@@H](C)OC)[nH]c5cc4F)N3c3cc(F)c(N4CCC(c5ccc(F)cc5)CC4)c(F)c3)c(F)cc2[nH]1)[C@@H](C)OC category="condition not met"
record_smiles=COC(=O)N[C@H](C(=O)N1CC2(CC2)C[C@H]1c1nc(-c2ccc3c(c2)C(F)(F)c2cc(-c4ccc5[nH]c([C@@H]6[C@H]7CC[C@H](C7)N6C(=O)[C@@H](NC(=O)OC)C(C)C)nc5c4)ccc2-3)c[nH]1)C(C)C category="condition met"

Exam item: Determine whether measured Antagonism volume meets or exceeds -8 for COC(=O)N[C@H](C(=O)N1C[C@H](SC)C[C@@H]1c1ncc(-c2ccc(-c3ccc(-c4[nH]c([C@@H]5CCCN5C(=O)[C@@H](NC(=O)OC)c5ccccc5)nc4Cl)cc3)cc2)[nH]1)c1ccccc1
Marked response: condition met

* * *

Tested on: HCV GT1b (Con1, HCV-1b) replicon
Test: HCV GT1b replicon 2-drug combination assay (firefly luciferase, MacSynergy II)
Type: cell-based, Hepatitis C virus
Settings: 2nd inhibitor (NS3 protease inhibitor table, incl. ribavirin) in combination with Compound A; 3 days; 0.125-8x EC50
Synergy volume listing for selected molecules.

Please review the following examples before continuing.
record_smiles=NC(=O)c1ncn([C@@H]2O[C@H](CO)[C@@H](O)[C@H]2O)n1 property="Synergy volume" reading=0.24
record_smiles=COc1ccc2c(O[C@@H]3C[C@H]4C(=O)N[C@]5(C(=O)NS(=O)(=O)C6CC6)C[C@H]5/C=C\CCCCN(C)C(=O)[C@@H]4C3)cc(-c3nc(C(C)C)cs3)nc2c1C property="Synergy volume" reading=13.39
record_smiles=CC(C)(C)[C@@H]1NC(=O)O[C@@H]2CCC[C@H]2OC/C=C/C(F)(F)c2nc3ccccc3nc2O[C@@H]2C[C@@H](C(=O)N[C@]3(C(=O)NS(=O)(=O)C4(C)CC4)C[C@H]3C(F)F)N(C2)C1=O property="Synergy volume" reading=47.37

# molecule C=C[C@@H]1C[C@]1(NC(=O)[C@@H]1C[C@@H](Oc2ncc(OC)c3ccc(Cl)cc23)CN1C(=O)[C@@H](NC(=O)OC(C)(C)C)C(C)(C)C)C(=O)NS(=O)(=O)C1CC1 ; its Synergy volume = 4.9
